Entry source: the RNAGym collection of RNA variant scans (doi:10.1038/s41586-018-0170-7)

B1: tRNA (parent)
chain: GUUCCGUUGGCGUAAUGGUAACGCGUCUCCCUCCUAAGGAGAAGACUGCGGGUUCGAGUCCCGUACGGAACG

Variants of: B1
Test: yeast fitness, log relative to wild type (ln ratio); higher = fitter; tRNA-Arg(CCU), competitive growth, 37 C, 1 M NaCl
Outcome: rule met for yeast fitness (ln) of at least -0.2; rule not met for anything lower.

Example entries and their recorded answers appear below.
[[record]]
mutation_key = "G1A U2G G6U C46U C66A A69G A70G C71U"
class_label = "rule not met"

[[record]]
mutation_key = "C27U A43C C46U C66U A69G A70U"
class_label = "rule not met"

[[record]]
mutation_key = "G1A U2G G6U C46U A69G A70U"
class_label = "rule not met"

[[record]]
mutation_key = "U2G G6A C27U A43C C46U C66A A70G"
class_label = "rule met"

[[record]]
mutation_key = "U2G A43C A70U"
class_label = "rule met"


Ask | State whether the measured yeast fitness (ln) reaches -0.2, counting equality as reaching it, for C27U A43C C46U A70G C71U
Reply | rule not met

Ask | State whether the measured yeast fitness (ln) reaches -0.2, counting equality as reaching it, for G1A U2C G6A C46U A70U
Reply | rule met

Ask | State whether the measured yeast fitness (ln) reaches -0.2, counting equality as reaching it, for G1A U2C C27U C46U A69G A70U C71U
Reply | rule not met

Ask | State whether the measured yeast fitness (ln) reaches -0.2, counting equality as reaching it, for U2G G6A C27U A43C A69G A70G C71U
Reply | rule met

Ask | State whether the measured yeast fitness (ln) reaches -0.2, counting equality as reaching it, for U2G G6U C46U C66U A69G A70G C71U
Reply | rule not met

Ask | State whether the measured yeast fitness (ln) reaches -0.2, counting equality as reaching it, for G1A U2C G6A C27U A43C C46U A70G C71U
Reply | rule met
